# Measured On: ZNF217 (UniProt O75362)
# Sequence (O75362 whole entry, looked up): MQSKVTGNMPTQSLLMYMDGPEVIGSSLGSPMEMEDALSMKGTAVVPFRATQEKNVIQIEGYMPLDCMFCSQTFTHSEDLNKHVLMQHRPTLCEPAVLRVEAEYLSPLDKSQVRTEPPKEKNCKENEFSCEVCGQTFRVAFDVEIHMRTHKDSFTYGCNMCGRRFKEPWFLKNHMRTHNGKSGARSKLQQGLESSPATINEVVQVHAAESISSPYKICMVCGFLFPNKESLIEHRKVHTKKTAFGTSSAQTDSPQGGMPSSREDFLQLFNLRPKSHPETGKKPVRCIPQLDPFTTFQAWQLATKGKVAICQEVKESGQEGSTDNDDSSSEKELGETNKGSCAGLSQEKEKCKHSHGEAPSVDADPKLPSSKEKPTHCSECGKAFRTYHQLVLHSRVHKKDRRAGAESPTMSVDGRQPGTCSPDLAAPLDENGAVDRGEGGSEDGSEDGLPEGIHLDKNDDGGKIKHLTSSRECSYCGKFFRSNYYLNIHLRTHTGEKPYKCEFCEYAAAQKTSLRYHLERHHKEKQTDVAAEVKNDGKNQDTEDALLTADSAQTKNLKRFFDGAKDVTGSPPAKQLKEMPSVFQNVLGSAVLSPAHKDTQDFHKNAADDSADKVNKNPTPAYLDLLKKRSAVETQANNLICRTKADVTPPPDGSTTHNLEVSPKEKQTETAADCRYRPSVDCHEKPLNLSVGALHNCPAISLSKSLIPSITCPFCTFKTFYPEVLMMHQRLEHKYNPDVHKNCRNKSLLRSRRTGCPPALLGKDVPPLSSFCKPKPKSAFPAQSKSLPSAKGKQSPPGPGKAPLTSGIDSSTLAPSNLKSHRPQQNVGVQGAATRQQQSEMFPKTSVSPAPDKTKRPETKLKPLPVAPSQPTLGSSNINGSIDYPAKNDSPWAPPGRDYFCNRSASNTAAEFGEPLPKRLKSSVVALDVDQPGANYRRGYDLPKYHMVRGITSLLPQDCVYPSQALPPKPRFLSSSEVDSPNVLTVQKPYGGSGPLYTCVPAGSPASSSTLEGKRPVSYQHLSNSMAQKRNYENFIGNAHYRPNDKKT
# Protocol Description: log2 fold change, soluble protein after heating vs DMSO (PISA); higher = thermal stabilisation; K562 cells, 10 uM, 30 min; active = over 0.2 and 3.5 SD of the protein, either way, in both replicates (recomputed)
Of roughly 7,900 targets only a part is listed; those with a hit were picked by preference. About 0.6% of all pairs of compound and target were hits.
# binarize log2 fold change: threshold -0.03 inclusive, high side Met, low side Not met

The following compounds have reported results that may help.
{"Smiles Record": "CCn1cc(-c2ccnc3[nH]c(-c4cccc(CN(C)C)c4)cc23)c(-c2ccc(NC(=O)N(C)C)cc2)n1", "Class Name": "Met"}
{"Smiles Record": "C/C(=N\\NC(=O)c1cccc(S(=O)(=O)N2CCOCC2)c1)c1cc(Cl)ccc1O", "Class Name": "Met"}
{"Smiles Record": "NC(=O)Nc1cc(-c2cccc(F)c2)sc1C(=O)N[C@H]1CCCNC1", "Class Name": "Met"}
{"Smiles Record": "CN1CCN(CCOc2cc(OC3CCOCC3)c3c(Nc4c(Cl)ccc5c4OCO5)ncnc3c2)CC1", "Class Name": "Not met"}
{"Smiles Record": "CC[C@H](C)[C@H](NC(=O)[C@H]([C@@H](C)CC)N(C)C(C)=O)C(=O)N[C@H](C(=O)N[C@@H](CC(C)C)C(=O)[C@@]1(C)CO1)[C@@H](C)O", "Class Name": "Met"}

Textbook exercise: given the entry CCn1c(C(=O)N(C2CC2)C2CC2)cc2c3c(ncn3C)c(Nc3cc(C)n(C)n3)nc21 , state whether its log2 fold change is greater than or equal to -0.03.
Not met

Textbook exercise: given the entry C=CC(=O)N1CCC[C@@H](n2nc(-c3ccc(Oc4ccccc4)cc3)c3c(N)ncnc32)C1 , state whether its log2 fold change is greater than or equal to -0.03.
Met

Textbook exercise: given the entry c1cc(OCCN2CCCCC2)cc(-c2n[nH]c3ccc(-c4nnc[nH]4)cc23)c1 , state whether its log2 fold change is greater than or equal to -0.03.
Not met

Textbook exercise: given the entry COc1cc2ncnc(Nc3ccc(F)c(Cl)c3)c2cc1OCCCN1CCOCC1 , state whether its log2 fold change is greater than or equal to -0.03.
Met

Textbook exercise: given the entry O=C1NC(=NCc2cccs2)S/C1=C\c1ccc2ncccc2c1 , state whether its log2 fold change is greater than or equal to -0.03.
Met
